system: NCI-H1993; experiment: relative viability (nuclei count vs DMSO), 5 days (fraction); higher = more cells survive; conditions: first compound 0.01 µM
The threshold is 0.8. Values of relative viability beneath it are tagged Y; values meeting or exceeding it are tagged N.

# Compound, Assigned Category
records = [
    ("CC(C)Oc1cc(Nc2nc(N[C@@H](C)c3ccc(F)cn3)ncc2Cl)n[nH]1 [AZ23] + O=C(CCCCCCC(=O)Nc1ccccc1)NO [Vorinostat] (partner 1 µM)", "Y"),
    ("CC(C)Oc1cc(Nc2nc(N[C@@H](C)c3ccc(F)cn3)ncc2Cl)n[nH]1 [AZ23] + Cc1cc(Nc2cc(N3CCN(C)CC3)nc(Sc3ccc(NC(=O)C4CC4)cc3)n2)n[nH]1 [Tozasertib] (partner 0.1 µM)", "Y"),
    ("CC(C)Oc1cc(Nc2nc(N[C@@H](C)c3ccc(F)cn3)ncc2Cl)n[nH]1 [AZ23] + CC1(C)CCC(c2ccc(Cl)cc2)=C(CN2CCN(c3ccc(C(=O)NS(=O)(=O)c4ccc(N[C@H](CCN5CCOCC5)CSc5ccccc5)c(S(=O)(=O)C(F)(F)F)c4)cc3)CC2)C1 [Navitoclax] (partner 0.5 µM)", "Y"),
    ("CC(C)Oc1cc(Nc2nc(N[C@@H](C)c3ccc(F)cn3)ncc2Cl)n[nH]1 [AZ23] + CC(=O)c1c(C)c2cnc(Nc3ccc(N4CCNCC4)cn3)nc2n(C2CCCC2)c1=O [Palbociclib] (partner 0.5 µM)", "Y"),
    ("CC(C)Oc1cc(Nc2nc(N[C@@H](C)c3ccc(F)cn3)ncc2Cl)n[nH]1 [AZ23] + C[C@@H](Oc1cc(-c2cnn(C3CCNCC3)c2)cnc1N)c1c(Cl)ccc(F)c1Cl [Crizotinib] (partner 1 µM)", "N"),
]

###

tested on: ChaGo-K-1; experiment: relative viability (nuclei count vs DMSO), 5 days (fraction); higher = more cells survive; settings: first compound 0.1265 µM
Recorded Metric: relative viability

# Compound, System Name, Readout Number
rows = [
    ("Clc1ccc(Nc2nnc(Cc3ccncc3)c3ccccc23)cc1 [Vatalanib] + N=C(N)NC(=N)NCCc1ccccc1 [Phenformin] (partner 250 µM)", "ChaGo-K-1", 0.407),
    ("COc1cc(N2CCC(C(N)=O)CC2)ccc1Nc1nc(N)c(Cl)c(Nc2ccccc2S(=O)(=O)C(C)C)n1 [HG-5-88-01] + COc1cccc2cc(-c3nc([C@H]4CC[C@H](C(=O)O)CC4)n4ncnc(N)c34)[nH]c12 [OSI-027] (partner 0.5 µM)", "ChaGo-K-1", 0.649),
    ("Clc1ccc(Nc2nnc(Cc3ccncc3)c3ccccc23)cc1 [Vatalanib] + CC(C)C[C@H](NC(=O)[C@H](Cc1ccccc1)NC(=O)c1cnccn1)B(O)O [Bortezomib] (partner 0.002 µM)", "ChaGo-K-1", 0.938),
    ("Clc1ccc(Nc2nnc(Cc3ccncc3)c3ccccc23)cc1 [Vatalanib] + Cc1nc(Nc2ncc(C(=O)Nc3c(C)cccc3Cl)s2)cc(N2CCN(CCO)CC2)n1 [Dasatinib] (partner 0.075 µM)", "ChaGo-K-1", 0.541),
    ("Clc1ccc(Nc2nnc(Cc3ccncc3)c3ccccc23)cc1 [Vatalanib] + Nc1ncn([C@H]2C[C@H](O)[C@@H](CO)O2)c(=O)n1 [Decitabine] (partner 2 µM)", "ChaGo-K-1", 0.52),
    ("C[C@@H]1CN(CC(=O)Nc2ccc3c(c2)Cc2cccc(-c4cc(=O)cc(N5CCOCC5)o4)c2S3)C[C@H](C)O1 + Cc1nc(Nc2ncc(C(=O)Nc3c(C)cccc3Cl)s2)cc(N2CCN(CCO)CC2)n1 [Dasatinib] (partner 0.075 µM)", "ChaGo-K-1", 0.617),
    ("C[C@@H]1CN(CC(=O)Nc2ccc3c(c2)Cc2cccc(-c4cc(=O)cc(N5CCOCC5)o4)c2S3)C[C@H](C)O1 + CC(=O)c1c(C)c2cnc(Nc3ccc(N4CCNCC4)cn3)nc2n(C2CCCC2)c1=O [Palbociclib] (partner 0.5 µM)", "ChaGo-K-1", 0.924),
    ("C[C@@H]1CN(CC(=O)Nc2ccc3c(c2)Cc2cccc(-c4cc(=O)cc(N5CCOCC5)o4)c2S3)C[C@H](C)O1 + O=C(CCCCCCC(=O)Nc1ccccc1)NO [Vorinostat] (partner 1 µM)", "ChaGo-K-1", 0.778),
    ("Clc1ccc(Nc2nnc(Cc3ccncc3)c3ccccc23)cc1 [Vatalanib] + CS(=O)(=O)N1CCN(Cc2cc3nc(-c4cccc5[nH]ncc45)nc(N4CCOCC4)c3s2)CC1 [Pictilisib] (partner 1 µM)", "ChaGo-K-1", 0.719),
    ("Clc1ccc(Nc2nnc(Cc3ccncc3)c3ccccc23)cc1 [Vatalanib] + NC(=O)Nc1cc(-c2cccc(F)c2)sc1C(=O)N[C@H]1CCCNC1 [AZD7762] (partner 0.2 µM)", "ChaGo-K-1", 0.845),
]
